Molecular target: T1, His-tagged human CTLA-4 (CT4-H5229; Acro Biosystems) (human, UniProt P16410 36-161)
T1 construct: bought soluble protein; also called soluble human CTLA-4; recombinant human CTLA-4; not shown: His tag
T1 sequence (P16410 36-161 limits assumed): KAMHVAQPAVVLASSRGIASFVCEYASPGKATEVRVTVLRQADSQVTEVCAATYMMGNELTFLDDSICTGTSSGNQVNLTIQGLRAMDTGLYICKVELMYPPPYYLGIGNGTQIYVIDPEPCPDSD
Assay: SPR (Carterra)

binder | koff / s⁻¹
antibody A8 (L8H8) (antibody, V domains shown, also called aCTLA-4.1) VH: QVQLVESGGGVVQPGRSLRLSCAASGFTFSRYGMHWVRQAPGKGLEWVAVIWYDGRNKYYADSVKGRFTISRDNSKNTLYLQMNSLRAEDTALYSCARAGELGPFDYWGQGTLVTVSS VL: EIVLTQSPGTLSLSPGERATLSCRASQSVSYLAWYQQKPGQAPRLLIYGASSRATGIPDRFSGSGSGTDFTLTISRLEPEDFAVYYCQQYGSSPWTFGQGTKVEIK | 0.00039
antibody A4 (L4H4) (antibody, V domains shown, also called aCTLA-4.29) VH: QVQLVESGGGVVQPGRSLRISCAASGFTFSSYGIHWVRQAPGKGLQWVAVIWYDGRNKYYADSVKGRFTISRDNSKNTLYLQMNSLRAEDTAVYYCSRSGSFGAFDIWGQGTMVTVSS VL: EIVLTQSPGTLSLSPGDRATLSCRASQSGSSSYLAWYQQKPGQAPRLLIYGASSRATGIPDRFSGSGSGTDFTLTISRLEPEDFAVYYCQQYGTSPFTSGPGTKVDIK | 0.00023
antibody A16 (L16H16) (antibody, V domains shown, also called aCTLA-4.5) VH: QVQLVESGGGVVQPGRSLRLSCAASGFTFSSYGIHWVRQAPGKGLEWVAVIWYDGSNKYYADSVKGRFTISRDNSKNTLYLQMNSLRAEDTAVYYCARGSLLGPFDYWGQGTLVTVSS VL: DIQMTQSPSSLSASVGDRVTITCRASQGISNYLAWYQQKPGKVPKLLIYAASTLQSGVPSRFSGSGSGTDFTLTISSLQPEDVATYYCQNYNSAPWTFGQGTKVEIK | 0.00072
antibody A5 (L5H5) (antibody, V domains shown, also called aCTLA-4.28; CTLA4.A5) VH: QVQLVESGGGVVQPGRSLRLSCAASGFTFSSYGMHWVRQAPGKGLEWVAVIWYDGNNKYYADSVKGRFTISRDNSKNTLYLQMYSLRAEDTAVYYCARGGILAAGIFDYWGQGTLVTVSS VL: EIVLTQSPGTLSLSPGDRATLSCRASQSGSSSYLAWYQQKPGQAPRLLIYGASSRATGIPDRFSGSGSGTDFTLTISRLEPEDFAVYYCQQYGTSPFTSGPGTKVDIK | 0.00042

Measured values drawn from patent US20230265192A1 for this set.
